test system: SK-MEL-5 melanoma; experiment: NCI tumour cell line growth inhibition, 48 h
READOUT NAME: TGI (µM)
Numbers only; they are read as µM.

Solved cases below.
Bench note: what TGI did Fc1ccc(N=C/C=C/Nc2ccc(F)cc2)cc1 show? 22.3

Bench note: what TGI did CCCCCc1cc2cc3c(c(O)c2c(=O)[nH]1)C1(CCC3)C(O)=c2c(=O)c3c(=O)cc(OC)c(=O)c=3c(=O)c2=C1O (stereo not given) show? 1.69

Now examine the next entry.
Bench note: what TGI did C=CCc1cc(-c2cc(CC=C)c(O)c(CN(CC)CC)c2)cc(CN(CC)CC)c1O show? 25.9
